# Tgt: T1, IL-18Rα/β heterodimer (Fc fused human IL-18Rα mixed with Fc fused human IL-18Rβ) (human, UniProt Q13478 19-329; O95256 20-356, limits assumed)
# T1 construct: Alpha and beta Fc fusions were mixed and pre-incubated for 30 min before capture on anti-human IgG; also called alpha/beta heterodimer IL-18 receptor; heterodimeric human IL-18 receptor alpha (CD218a) and IL-18R accessory protein (IL-18RAP/CDw218b); not shown: Fc
# T1 sequence (looked up) 1: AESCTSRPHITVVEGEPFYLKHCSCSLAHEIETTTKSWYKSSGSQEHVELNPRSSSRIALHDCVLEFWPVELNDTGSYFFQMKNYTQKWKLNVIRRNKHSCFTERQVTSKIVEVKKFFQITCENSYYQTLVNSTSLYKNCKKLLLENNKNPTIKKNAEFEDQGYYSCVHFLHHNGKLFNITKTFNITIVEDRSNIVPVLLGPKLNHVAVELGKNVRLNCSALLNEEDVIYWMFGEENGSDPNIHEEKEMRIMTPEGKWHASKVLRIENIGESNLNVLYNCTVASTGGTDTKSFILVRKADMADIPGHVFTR
# T1 sequence (looked up) 2: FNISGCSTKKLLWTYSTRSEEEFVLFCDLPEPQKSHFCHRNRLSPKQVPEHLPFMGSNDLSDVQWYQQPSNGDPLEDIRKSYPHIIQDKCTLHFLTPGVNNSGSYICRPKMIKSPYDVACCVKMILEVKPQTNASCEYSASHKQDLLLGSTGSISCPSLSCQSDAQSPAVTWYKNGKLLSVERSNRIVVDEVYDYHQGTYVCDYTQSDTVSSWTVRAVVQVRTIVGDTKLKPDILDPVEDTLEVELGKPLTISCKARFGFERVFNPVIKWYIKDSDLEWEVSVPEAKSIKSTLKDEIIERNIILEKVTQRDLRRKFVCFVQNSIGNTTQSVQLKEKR
# Method: SPR, Fc-IL-18Rα/β captured, heterogeneous ligand fit
Observable: koff (s⁻¹)
Report the value in s⁻¹ with no unit label.

Q) I'd like to know its koff. The binder in question is IL-18 variant SEQ ID NO: 61 (E6K, C38A, K53A, C76A) (ligand) YFGKLKSKLSVIRNLNDQVLFIDQGNRPLFEDMTDSDARDNAPRTIFIISMYADSQPRGMAVTISVKCEKISTLSAENKIISFKEMNPPDNIKDTKSDIIFFQRSVPGHDNKMQFESSSYEGYFLACEKERDLFKLILKKEDELGDRSIMFTVQNED
A) 0.0011

Q) Name the recorded koff for IL-18 variant SEQ ID NO: 60 with 30 kDa PEG (E6K, C38Q, K53A, C68-30kPEG) (ligand, 30 kDa PEG on Cys 68 (C68-30kPEG), also called 60 + PEG) YFGKLKSKLSVIRNLNDQVLFIDQGNRPLFEDMTDSDQRDNAPRTIFIISMYADSQPRGMAVTISVKCEKISTLSCENKIISFKEMNPPDNIKDTKSDIIFFQRSVPGHDNKMQFESSSYEGYFLACEKERDLFKLILKKEDELGDRSIMFTVQNED .
A) 0.000789

Q) Bench note: what koff did IL-18 variant SEQ ID NO: 59 (E6K, C38A, K53A) (ligand) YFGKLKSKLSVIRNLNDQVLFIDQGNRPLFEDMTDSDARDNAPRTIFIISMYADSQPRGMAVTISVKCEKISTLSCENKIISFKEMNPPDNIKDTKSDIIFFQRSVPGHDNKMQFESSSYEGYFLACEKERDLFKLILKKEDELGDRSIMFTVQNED show?
A) 0.000815

Q) // query koff value for entry IL-18 variant SEQ ID NO: 62 (E6K, C38A, K53A, C127A) (ligand) YFGKLKSKLSVIRNLNDQVLFIDQGNRPLFEDMTDSDARDNAPRTIFIISMYADSQPRGMAVTISVKCEKISTLSCENKIISFKEMNPPDNIKDTKSDIIFFQRSVPGHDNKMQFESSSYEGYFLAAEKERDLFKLILKKEDELGDRSIMFTVQNED
A) 0.00149

Q) Returns the measured koff for the input binder. Input: IL-18 variant SEQ ID NO: 61 with 30 kDa PEG (E6K, C38A, K53A, C76A, C68-30kPEG) (ligand, 30 kDa PEG on Cys 68 (C68-30kPEG), also called 61 + PEG) YFGKLKSKLSVIRNLNDQVLFIDQGNRPLFEDMTDSDARDNAPRTIFIISMYADSQPRGMAVTISVKCEKISTLSAENKIISFKEMNPPDNIKDTKSDIIFFQRSVPGHDNKMQFESSSYEGYFLACEKERDLFKLILKKEDELGDRSIMFTVQNED
A) 0.000589

Q) Consider the binder shown here: IL-18 variant SEQ ID NO: 30 with 20 kDa PEG (E6K, V11I, C38A, K53A, T63A, C76A, C127A, C68-20kPEG) (ligand, 20 kDa PEG on Cys 68 (C68-20kPEG), also called 30 + PEG20) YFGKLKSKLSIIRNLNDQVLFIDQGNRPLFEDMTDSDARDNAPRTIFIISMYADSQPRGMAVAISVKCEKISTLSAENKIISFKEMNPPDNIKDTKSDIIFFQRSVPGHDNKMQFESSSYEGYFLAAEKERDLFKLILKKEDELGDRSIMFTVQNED What is its recorded koff?
A) 0.000637

Q) Look up koff: IL-18 variant SEQ ID NO: 30 with 5 kDa PEG (E6K, V11I, C38A, K53A, T63A, C76A, C127A, C68-5kPEG) (ligand, 5 kDa PEG on Cys 68 (C68-5kPEG), also called 30 + PEG5) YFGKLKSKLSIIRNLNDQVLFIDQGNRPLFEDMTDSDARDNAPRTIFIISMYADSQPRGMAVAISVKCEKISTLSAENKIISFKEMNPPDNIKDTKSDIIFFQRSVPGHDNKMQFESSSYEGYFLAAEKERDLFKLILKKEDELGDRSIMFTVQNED
A) 0.000594

Hey, just so you know, these numbers are from patent US20250186594A1.
